# Test description: Analysis of luciferase mRNA-encapsulated lipid nanoparticle (Production Example 2)
# Format: physicochemical
# Test settings: luciferase mRNA lipid nanoparticle; cationic lipid:DPPC:cholesterol:GS-020=60:10.6:28:1.4
Threshold rule: Average particle size greater than or equal to 100 nm is Met; below that, Not met.

| Molecule | Qualitative label |
| --- | --- |
| CCCCCC(=O)OCC(COC(=O)CCCCC)(COC(=O)CCCCN(C)C)COC(=O)CCC(CCCCC)C(CCCCC)CCCCC (centres unmarked) | Met |
| CCCCCCCC(=O)OCC(COC(=O)CCCCCCC)(COC(=O)CCCCN(C)C)COC(=O)CCC(CCCCCCC)CCCCCCC | Met |
| CCCCCCCC(=O)OCC(COC(=O)CCCCCCC)(COC(=O)CCC(CCCC)C(CCCC)CCCC)COC(=O)NCCCCN(C)C (centres unmarked) | Not met |
| CCCCCC(=O)OCC(COC(=O)CCCCC)(COC(=O)CCCCN(C)C)COC(=O)CCC(CCCC)C(CCCC)CCCC (centres unmarked) | Met |
| CCCCCCCC(=O)OCC(COC(=O)CCCCCCC)(COC(=O)CCCCN(C)C)COC(=O)CCC(CCCCC)C(CCCCC)CCCCC (centres unmarked) | Met |
